# Test system: Ferredoxin
# Assay Summary: Biotinylated ferredoxin counter screen on linear and lactam constrained peptide microarrays
# Format: binding
# Protocol Conditions: lactam constrained library peptide; 10.0 nM biotinylated protein, detected with Streptavidin-Alexa Fluor 555
Quantity Kind: Ferredoxin Lactam, log 10 transformed median intensity

Substance: TSFFPGYN [library array peptide, tested lactam constrained and linear]
Observed Result: 2.71
//
Substance: TTFFQPSY [library array peptide, tested lactam constrained and linear]
Observed Result: 2.78
//
Substance: TYPGVYPS [library array peptide, tested lactam constrained and linear]
Observed Result: 2.69
//
Substance: PTSSYLN [library array peptide, tested lactam constrained and linear]
Observed Result: 2.56
//
Substance: PNYSSAP [library array peptide, tested lactam constrained and linear]
Observed Result: 2.56
//
Substance: QPQSQQSQ [library array peptide, tested lactam constrained and linear]
Observed Result: 2.56
//
Substance: PFSGQPNS [library array peptide, tested lactam constrained and linear]
Observed Result: 2.59
//
Substance: TYPIYGPA [library array peptide, tested lactam constrained and linear]
Observed Result: 2.80
//
Substance: PYSNVFQG [library array peptide, tested lactam constrained and linear]
Observed Result: 2.59
//
Substance: TFGFNGFP [library array peptide, tested lactam constrained and linear]
Observed Result: 2.70
//
Substance: TFSSFAPV [library array peptide, tested lactam constrained and linear]
Observed Result: 2.70

====

FNR Linear, log 10 transformed median intensity listing for selected substances.
# System: Ferredoxin NADP+ Reductase (FNR)
# Assay Summary: FNR counter screen on linear and lactam constrained peptide microarrays
# Assay type: binding
# Protocol Conditions: linear library peptide; 10.0 nM protein applied to the array
Quantity Kind: FNR Linear, log 10 transformed median intensity

Substance: TFSSFAPV [library array peptide, tested lactam constrained and linear]
Experimental System: Ferredoxin NADP+ Reductase (FNR)
Observed Result: 2.55
--
Substance: PTSSYLN [library array peptide, tested lactam constrained and linear]
Experimental System: Ferredoxin NADP+ Reductase (FNR)
Observed Result: 2.53
--
Substance: TYPGVYPS [library array peptide, tested lactam constrained and linear]
Experimental System: Ferredoxin NADP+ Reductase (FNR)
Observed Result: 2.54

====

# Experimental System: human diaphorase (NQO1) (Homo sapiens, UniProt P15559)
# Construct: purchased SigmaAldrich
# Sequence (P15559 whole entry): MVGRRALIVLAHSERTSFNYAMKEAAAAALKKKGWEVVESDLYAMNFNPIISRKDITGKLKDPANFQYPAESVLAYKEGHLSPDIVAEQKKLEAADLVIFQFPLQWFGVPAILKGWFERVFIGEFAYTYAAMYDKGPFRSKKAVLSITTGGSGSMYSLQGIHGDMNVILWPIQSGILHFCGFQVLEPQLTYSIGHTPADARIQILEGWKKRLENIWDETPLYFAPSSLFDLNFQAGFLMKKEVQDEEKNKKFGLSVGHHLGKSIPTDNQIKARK
# Assay Summary: Alexa Fluor 555-diaphorase binding to linear and lactam constrained peptide microarrays
# Protocol Conditions: linear library peptide; 10.0 nM protein applied to the array
For each record, check the reported Diaphorase Linear, log 10 transformed median intensity: if it is below 4 write 1, else write 0.

Substance: TFSSFAPV [library array peptide, tested lactam constrained and linear]
Experimental System: human diaphorase (NQO1) (Homo sapiens, UniProt P15559)
Qualitative Label: 1
--
Substance: PYSNVFQG [library array peptide, tested lactam constrained and linear]
Experimental System: human diaphorase (NQO1) (Homo sapiens, UniProt P15559)
Qualitative Label: 1
--
Substance: TFGFNGFP [library array peptide, tested lactam constrained and linear]
Experimental System: human diaphorase (NQO1) (Homo sapiens, UniProt P15559)
Qualitative Label: 1
--
Substance: TSFFPGYN [library array peptide, tested lactam constrained and linear]
Experimental System: human diaphorase (NQO1) (Homo sapiens, UniProt P15559)
Qualitative Label: 1
--
Substance: IGPNPKNN [library array peptide, tested lactam constrained and linear]
Experimental System: human diaphorase (NQO1) (Homo sapiens, UniProt P15559)
Qualitative Label: 0
--
Substance: PFSGQPNS [library array peptide, tested lactam constrained and linear]
Experimental System: human diaphorase (NQO1) (Homo sapiens, UniProt P15559)
Qualitative Label: 1
--
Substance: PTSSYLN [library array peptide, tested lactam constrained and linear]
Experimental System: human diaphorase (NQO1) (Homo sapiens, UniProt P15559)
Qualitative Label: 1
--
Substance: TYPGVYPS [library array peptide, tested lactam constrained and linear]
Experimental System: human diaphorase (NQO1) (Homo sapiens, UniProt P15559)
Qualitative Label: 1
--
Substance: TTFFQPSY [library array peptide, tested lactam constrained and linear]
Experimental System: human diaphorase (NQO1) (Homo sapiens, UniProt P15559)
Qualitative Label: 1
--
Substance: VPSSYNLN [library array peptide, tested lactam constrained and linear]
Experimental System: human diaphorase (NQO1) (Homo sapiens, UniProt P15559)
Qualitative Label: 1
--
Substance: TISYPLTP [library array peptide, tested lactam constrained and linear]
Experimental System: human diaphorase (NQO1) (Homo sapiens, UniProt P15559)
Qualitative Label: 1
--
Substance: PGKPNTQ [library array peptide, tested lactam constrained and linear]
Experimental System: human diaphorase (NQO1) (Homo sapiens, UniProt P15559)
Qualitative Label: 0
--
Substance: TTLFQTPY [library array peptide, tested lactam constrained and linear]
Experimental System: human diaphorase (NQO1) (Homo sapiens, UniProt P15559)
Qualitative Label: 1
